This section presents molecules with their documented MIC values.
tested on: Staphylococcus aureus; test: Antibacterial activity against Staphylococcus aureus NCTC 8325 harboring genetic deletion of mepRA gene and carrying expression vector pG154 with mepA gene after 16 to 20 hrs by broth microdilution method; assay type: functional

Consider the reported MIC for these molecules:
| smiles | measurementName | experimentalResult |
| --- | --- | --- |
| C(=C\c1cc2ccc(C3=NCCN3)cc2[nH]1)/c1cc2ccc(C3=NCCN3)cc2[nH]1 | MIC | 1 µg/mL |
| c1cc2cc(-c3ccc(-c4cc5ccc(C6=NCCN6)cc5[nH]4)cc3)[nH]c2cc1C1=NCCN1 | MIC | 0.25 µg/mL |
| c1cc2cc(-c3ccc4cc(-c5ccc6oc(C7=NCCN7)cc6c5)[nH]c4c3)[nH]c2cc1C1=NCCN1 | MIC | 0.5 µg/mL |
| c1cc2cc(-c3ccc4cc(C5=NCCN5)[nH]c4c3)[nH]c2cc1C1=NCCN1 | MIC | 0.5 µg/mL |
| c1cc2cc(-c3ccc(-c4cc5ccc(C6=NCCCN6)cc5[nH]4)cc3)[nH]c2cc1C1=NCCCN1 | MIC | 0.5 µg/mL |

Exam item: Tell me the measured MIC of "Cn1cc(NC(=O)c2cc(NC(=O)c3cc(NC=O)cn3C)cn2C)cc1C(=O)NCCC(=N)N" , please.
Marked response: 50 µg/mL

---

system: Staphylococcus aureus; experiment: Antibacterial activity against Staphylococcus aureus NCTC 8325 carrying expression vector pG154 after 16 to 20 hrs by broth microdilution method; type: functional
measurementName: MIC (µg/mL)
Entry rule: numbers only, all in µg/mL.

| smiles | MIC, µg/mL |
| --- | --- |
| Cn1cc(NC(=O)c2cc(NC(=O)c3cc(NC=O)cn3C)cn2C)cc1C(=O)NCCC(=N)N | 50 |
| c1cc2cc(-c3ccc(-c4cc5ccc(C6=NCCCN6)cc5[nH]4)cc3)[nH]c2cc1C1=NCCCN1 | 0.5 |
| c1cc2cc(-c3ccc4cc(-c5ccc6oc(C7=NCCN7)cc6c5)[nH]c4c3)[nH]c2cc1C1=NCCN1 | 1 |
| c1cc2cc(-c3ccc4cc(C5=NCCN5)[nH]c4c3)[nH]c2cc1C1=NCCN1 | 0.5 |
| C(=C\c1cc2ccc(C3=NCCN3)cc2[nH]1)/c1cc2ccc(C3=NCCN3)cc2[nH]1 | 1 |

Exam item: Notebook entry, Staphylococcus aureus assay: MIC of "c1cc2cc(-c3ccc(-c4cc5ccc(C6=NCCN6)cc5[nH]4)cc3)[nH]c2cc1C1=NCCN1" = ?
Marked response: 0.5

---

The following compounds are shown together with reported MIC values.
system: Staphylococcus aureus; experiment: Antibacterial activity against Staphylococcus aureus NCTC 8325 after 16 to 20 hrs by broth microdilution method in presence of efflux pump inhibitor reserpine; format: functional
Number only, in µg/mL; omit the unit.

| smiles | experimentalSystem | unitText | experimentalResult |
| --- | --- | --- | --- |
| c1cc2cc(-c3ccc(-c4cc5ccc(C6=NCCCN6)cc5[nH]4)cc3)[nH]c2cc1C1=NCCCN1 | Staphylococcus aureus | µg/mL | 0.125 |
| c1cc2cc(-c3ccc4cc(C5=NCCN5)[nH]c4c3)[nH]c2cc1C1=NCCN1 | Staphylococcus aureus | µg/mL | 0.25 |
| C(=C\c1cc2ccc(C3=NCCN3)cc2[nH]1)/c1cc2ccc(C3=NCCN3)cc2[nH]1 | Staphylococcus aureus | µg/mL | 0.5 |
| c1cc2cc(-c3ccc(-c4cc5ccc(C6=NCCN6)cc5[nH]4)cc3)[nH]c2cc1C1=NCCN1 | Staphylococcus aureus | µg/mL | 0.125 |
| c1cc2cc(-c3ccc4cc(-c5ccc6oc(C7=NCCN7)cc6c5)[nH]c4c3)[nH]c2cc1C1=NCCN1 | Staphylococcus aureus | µg/mL | 0.25 |

We now examine a further compound.
Exam item: Report MIC for "Cn1cc(NC(=O)c2cc(NC(=O)c3cc(NC=O)cn3C)cn2C)cc1C(=O)NCCC(=N)N" please.
Marked response: 50

These data points were gathered from ChEMBL document CHEMBL1157072.
